Provide the recorded Cmax for the entries that follow.
- experimentDescription: Cmax in mouse
- Type: ADME, organism-based
- recordedConditions: in vivo
Please respond with the number in nM and leave the unit unwritten.

I have this compound here, O=C(OC1CN2CCC1CC2)N1CCc2ccccc2[C@@H]1c1ccc(F)cc1 (some centres not stated) , and I need its recorded Cmax.
28

I have this compound here, O=C(OCC12CCN(CC1)CC2)N1CCc2ccccc2[C@H]1c1ccc(F)cc1 , and I need its recorded Cmax.
30

====

- experimentDescription: Oral bioavailability in cynomolgus monkey
- Format: ADME, organism-based, Macaca fascicularis
- recordedConditions: in vivo, dose 10 mg/kg
quantityKind: bioavailability
Give your result as the value with the unit written after it.

I have this compound here, O=C(OCC12CCN(CC1)CC2)N1CCc2ccccc2[C@H]1c1ccc(F)cc1 , and I need its recorded bioavailability.
42%

====

- experimentDescription: Half life in cynomolgus monkey hepatocytes
- Type: ADME, cell-based, Macaca fascicularis, Hepatocyte
Provide the recorded half-life for the entries that follow.

I have this molecule here, O=C(OCC12CCN(CC1)CC2)N1CCc2ccccc2[C@H]1c1ccc(F)cc1 , and I need its recorded half-life.
22 min

I have this molecule here, O=C(OC1CN2CCC1CC2)N1CCc2ccccc2[C@@H]1c1ccc(F)cc1 (some centres not stated) , and I need its recorded half-life.
10 min

====

Provide the recorded Kp uu at 8 h for the entries that follow.
- experimentDescription: Unbound partition coefficient of the compound in rat incubated for 8 hrs
- Format: ADME
- recordedConditions: brain, read-out: K(p,uu,brain)
// return just the number, without any unit appended

I have this compound here, O=C(OC1CN2CCC1CC2)N1CCc2ccccc2[C@@H]1c1ccc(F)cc1 (some centres not stated) , and I need its recorded Kp uu at 8 h.
0.26

I have this compound here, O=C(OCC12CCN(CC1)CC2)N1CCc2ccccc2[C@H]1c1ccc(F)cc1 , and I need its recorded Kp uu at 8 h.
0.4

====

- experimentDescription: Unbound partition coefficient of the compound in mouse incubated for 8 hrs
- Format: ADME
- recordedConditions: brain, read-out: K(p,uu,brain)
Provide the recorded Kp uu at 8 h for the entries that follow.
// return just the number, without any unit appended

I have this molecule here, O=C(OC1CN2CCC1CC2)N1CCc2ccccc2[C@@H]1c1ccc(F)cc1 (some centres not stated) , and I need its recorded Kp uu at 8 h.
1.08

I have this molecule here, O=C(OCC12CCN(CC1)CC2)N1CCc2ccccc2[C@H]1c1ccc(F)cc1 , and I need its recorded Kp uu at 8 h.
0.09

====

- experimentDescription: Protein binding in rat brain assessed as unbound fraction
- Format: ADME, tissue-based
quantityKind: fraction unbound

I have this molecule here, O=C(OC1CN2CCC1CC2)N1CCc2ccccc2[C@@H]1c1ccc(F)cc1 (some centres not stated) , and I need its recorded fraction unbound.
0.008

I have this molecule here, O=C(OCC12CCN(CC1)CC2)N1CCc2ccccc2[C@H]1c1ccc(F)cc1 , and I need its recorded fraction unbound.
0.007

====

Provide the recorded solubility for the entries that follow.
- experimentDescription: Aqueous solubility of compound in pH 7.4 PBS measured
- Format: physicochemical
Please respond with the number in µM and leave the unit unwritten.

I have this molecule here, O=C(OC1CN2CCC1CC2)N1CCc2ccccc2[C@@H]1c1ccc(F)cc1 (stereo partly drawn) , and I need its recorded solubility.
1990

I have this molecule here, O=C(OCC12CCN(CC1)CC2)N1CCc2ccccc2[C@H]1c1ccc(F)cc1 , and I need its recorded solubility.
2670

I have this molecule here, O=C(NC1CN2CCC1CC2)N1CCc2ccccc2[C@@H]1c1ccc(F)cc1 (stereo partly drawn) , and I need its recorded solubility.
5960

====

- experimentDescription: Unbound partition coefficient of the compound in cynomolgus monkey incubated for 8 hrs
- Type: ADME, cell-free, Macaca fascicularis, Brain/Plasma
- recordedConditions: brain, read-out: K(p,uu,brain)
quantityKind: Kp uu at 8 h
// return just the number, without any unit appended

I have this compound here, O=C(OCC12CCN(CC1)CC2)N1CCc2ccccc2[C@H]1c1ccc(F)cc1 , and I need its recorded Kp uu at 8 h.
0.33

====

- experimentDescription: Oral bioavailability in rat
- Format: ADME, organism-based
- recordedConditions: in vivo, dose 10 mg/kg
quantityKind: bioavailability (%)
Please respond with the number in % and leave the unit unwritten.

I have this compound here, O=C(OC1CN2CCC1CC2)N1CCc2ccccc2[C@@H]1c1ccc(F)cc1 (some centres not stated) , and I need its recorded bioavailability.
16

I have this compound here, O=C(OCC12CCN(CC1)CC2)N1CCc2ccccc2[C@H]1c1ccc(F)cc1 , and I need its recorded bioavailability.
16

====

- experimentDescription: Half life in po dosed mouse
- Type: ADME, organism-based
- recordedConditions: in vivo
quantityKind: half-life (min)
Please respond with the number in min and leave the unit unwritten.

I have this compound here, O=C(OC1CN2CCC1CC2)N1CCc2ccccc2[C@@H]1c1ccc(F)cc1 (some centres not stated) , and I need its recorded half-life.
4.1

I have this compound here, O=C(OCC12CCN(CC1)CC2)N1CCc2ccccc2[C@H]1c1ccc(F)cc1 , and I need its recorded half-life.
2.9

====

- experimentDescription: Clearance in rat
- Assay type: ADME
- recordedConditions: in vivo
quantityKind: clearance (mL/min/kg)
Please respond with the number in mL/min/kg and leave the unit unwritten.

I have this compound here, O=C(OCC12CCN(CC1)CC2)N1CCc2ccccc2[C@H]1c1ccc(F)cc1 , and I need its recorded clearance.
102

I have this compound here, O=C(OC1CN2CCC1CC2)N1CCc2ccccc2[C@@H]1c1ccc(F)cc1 (some centres not stated) , and I need its recorded clearance.
198

====

- experimentDescription: Clearance in cynomolgus monkey
- Format: ADME, Macaca fascicularis
- recordedConditions: in vivo, dose 1 mg/kg
quantityKind: clearance (mL/min/kg)
Please respond with the number in mL/min/kg and leave the unit unwritten.

I have this molecule here, O=C(OCC12CCN(CC1)CC2)N1CCc2ccccc2[C@H]1c1ccc(F)cc1 , and I need its recorded clearance.
20.7

====

Provide the recorded fraction unbound for the entries that follow.
- experimentDescription: Protein binding in rat assessed as unbound fraction
- Type: ADME
// return just the number, without any unit appended

I have this compound here, O=C(OCC12CCN(CC1)CC2)N1CCc2ccccc2[C@H]1c1ccc(F)cc1 , and I need its recorded fraction unbound.
0.096

I have this compound here, O=C(OC1CN2CCC1CC2)N1CCc2ccccc2[C@@H]1c1ccc(F)cc1 (some centres not stated) , and I need its recorded fraction unbound.
0.086

====

- experimentDescription: Apparent permeability from apical to basolateral side in dog MDCK-MDR1 cells
- Format: ADME, cell-based, Canis lupus familiaris
quantityKind: Papp A→B (×10⁻⁶ cm/s)
Please respond with the number in ×10⁻⁶ cm/s and leave the unit unwritten.

I have this compound here, O=C(CC1CN2CCC1CC2)N1CCc2ccccc2[C@@H]1c1ccc(F)cc1 (some centres undefined) , and I need its recorded Papp A→B.
2.68

I have this compound here, O=C(OCC12CCN(CC1)CC2)N1CCc2ccccc2[C@H]1c1ccc(F)cc1 , and I need its recorded Papp A→B.
3.01

I have this compound here, O=C(NC1CN2CCC1CC2)N1CCc2ccccc2[C@@H]1c1ccc(F)cc1 (some centres undefined) , and I need its recorded Papp A→B.
0.95

I have this compound here, O=C(OC1CN2CCC1CC2)N1CCc2ccccc2[C@@H]1c1ccc(F)cc1 (some centres undefined) , and I need its recorded Papp A→B.
7.59

Data origin: ChEMBL document CHEMBL4819154
